Reference source for all entries: patent US20260053920A1

Tested target: T1, IMP2 peptide on HLA-A*02:01 (human)
T1 peptide: NLSALGIFST
Experiment description: multimer staining
Measured property: binding result

MEL8 (TCR, V domains shown) Valpha: QKEVEQNSGPLSVPEGAIASLNCTYSDRGSQSFFWYRQYSGKSPELIMSIYSNGDKEDGRFTAQLNKASQYVSLLIRDSQPSDSATYLCAVQKLVFGTGTRLLVSP Vbeta: NAGVTQTPKFQVLKTGQSMTLQCAQDMNHEYMSWYRQDPGMGLRLIHYSVGAGITDQGEVPNGYNVSRSTTEDFPLRLLSAAPSQTSVYFCASSYSFTEATYEQYFGPGTRLTVT | recognises
MEL11 (TCR) alpha TRAV12-2*01 TRAJ30 CDR3: CAVNYEDDKIIF beta TRBV9 TRBJ2-7 CDR3: CASSVGVQGSWEQYF | recognises
CLL9 (TCR) alpha TRAV12-2*01 TRAJ9 CDR3: CAVGAGGFKTIF beta TRBV2*02 TRBJ2-7 CDR3: CASSESPLSGNEQYF | recognises
MEL25 (TCR) alpha TRAV8-6 TRAJ47 CDR3: CAVSDNGNKLVF beta TRBV12-4 TRBJ2-7 CDR3: CASSWAGPVEQYF | recognises
